Assay: Maximum plasma concentration time in minutes was determined in mice after 20 mg/kg oral administration of the compound
Type: ADME, organism-based
Set-up: dose 20 mg/kg, route oral
Conditions: mouse
Tmax overview
For clarity, give the value followed by its unit.

input_smiles=Cc1ccc(NC(=O)N2CCCCC2)cc1Nc1nccc(-c2cccnc2)n1 measurement_label=Tmax result_value="30 min"
input_smiles=Cc1ccc(NC(=O)Nc2cccc(N(C)C)c2)cc1Nc1nccc(-c2cccnc2)n1 measurement_label=Tmax result_value="30 min"

-- ask Which Tmax reading was recorded for the compound Cc1ccc(NC(=O)Nc2cccc3ncccc23)cc1Nc1nccc(-c2cccnc2)n1 ?
-- reply 30 min

###

Test: Maximum plasma concentration was determined in mice after 20 mg/kg oral administration of the compound
Type: ADME, organism-based
Parameters: dose 20 mg/kg, route oral
Conditions: mouse
MEASUREMENT_LABEL: Cmax (nM)
Numeric only. Scale: nM

Sample answers from the record:
input_smiles=Cc1ccc(NC(=O)N2CCCCC2)cc1Nc1nccc(-c2cccnc2)n1 measurement_label=Cmax result_units=nM result_value=4320
input_smiles=Cc1ccc(NC(=O)Nc2cccc3ncccc23)cc1Nc1nccc(-c2cccnc2)n1 measurement_label=Cmax result_units=nM result_value=170

Proceeding to the next molecule to report its Cmax.
-- ask Which Cmax reading was recorded for the molecule Cc1ccc(NC(=O)Nc2cccc(N(C)C)c2)cc1Nc1nccc(-c2cccnc2)n1 ?
-- reply 1370

###

Tyrosine-protein kinase ABL1 (Homo sapiens): reported IC50 for various compounds.
Sequence (P00519 whole entry): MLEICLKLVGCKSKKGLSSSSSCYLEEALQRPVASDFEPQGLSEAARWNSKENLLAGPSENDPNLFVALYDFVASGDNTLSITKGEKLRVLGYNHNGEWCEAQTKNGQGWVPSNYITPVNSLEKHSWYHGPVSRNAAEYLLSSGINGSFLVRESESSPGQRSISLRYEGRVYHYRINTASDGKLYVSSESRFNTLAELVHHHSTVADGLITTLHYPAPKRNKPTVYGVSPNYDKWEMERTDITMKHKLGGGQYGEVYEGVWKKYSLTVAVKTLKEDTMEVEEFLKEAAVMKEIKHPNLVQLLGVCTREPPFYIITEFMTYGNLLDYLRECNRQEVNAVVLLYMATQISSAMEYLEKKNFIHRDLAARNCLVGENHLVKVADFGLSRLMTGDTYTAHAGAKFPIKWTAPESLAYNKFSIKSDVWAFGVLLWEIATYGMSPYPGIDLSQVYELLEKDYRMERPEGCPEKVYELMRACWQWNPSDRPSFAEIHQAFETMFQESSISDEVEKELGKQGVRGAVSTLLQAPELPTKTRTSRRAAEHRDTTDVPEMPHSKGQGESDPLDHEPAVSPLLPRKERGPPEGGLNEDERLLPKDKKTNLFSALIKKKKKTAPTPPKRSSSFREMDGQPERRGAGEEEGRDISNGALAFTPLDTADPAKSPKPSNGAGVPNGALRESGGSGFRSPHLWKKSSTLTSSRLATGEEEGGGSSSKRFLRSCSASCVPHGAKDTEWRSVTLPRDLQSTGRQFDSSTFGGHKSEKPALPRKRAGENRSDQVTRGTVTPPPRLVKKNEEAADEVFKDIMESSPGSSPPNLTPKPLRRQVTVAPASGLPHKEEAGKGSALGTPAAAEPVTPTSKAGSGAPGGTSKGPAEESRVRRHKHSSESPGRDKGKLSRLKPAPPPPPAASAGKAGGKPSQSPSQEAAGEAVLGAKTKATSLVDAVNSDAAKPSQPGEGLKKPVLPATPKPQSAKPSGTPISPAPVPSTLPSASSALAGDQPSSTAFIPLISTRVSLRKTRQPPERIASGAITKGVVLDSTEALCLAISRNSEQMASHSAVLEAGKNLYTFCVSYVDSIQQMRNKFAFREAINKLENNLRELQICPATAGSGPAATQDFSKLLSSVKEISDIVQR
Numeric only. Scale: nM

input_smiles=Cc1ccc(NC(=O)Nc2cccnc2)cc1Nc1nccc(-c2cccnc2)n1 subject_of_test="Tyrosine-protein kinase ABL1 (Homo sapiens)" result_value=1000

-- ask GET /values?readout=IC50&system=Tyrosine-protein kinase ABL1 (Homo sapiens)&item= Cc1ccc(NC(=O)Nc2ccccc2CN(C)C2CCCCC2)cc1Nc1nccc(-c2cccnc2)n1
-- reply 870
